Molecular target: citrate synthase
Reported Citrate Synthase Inactivation, µ values for a set of proteins

[
  {
    "protein": "FkpA-DsbA3 (protein) AEAAKPATAADSKAAFKNDDQKSAYALGASLGRYMENSLKEQEKLGIKLDKDQLIAGVQDAFADKSKLSDQEIEQTLQAFEARVKSSAQAKMEKDAADNEAKGKEYREKFAKEKYEDGKQYTTLEKPVAGAPQVLEFFSFFCPHCYQFEEVLHISDNVKKKLPEGVKMTKYHVNFMGGDLGKDLTQAWAVAMALGVEDKVTVPLFEGVQKTQTIRSASDIRDVFINAGIKGEEYDAAWNSFVVKSLVAQQEKAAADVQLRGVPAMFVNGKYQLNPQGMDTSNMDVFVQQYADTVKYLSEKKHHHHHH",
    "Citrate Synthase Inactivation, µ / min - 1": 0.36
  },
  {
    "protein": "FkpA-DsbA2 (protein) AEAAKPATAADSKAAFKNDDQKSAYALGASLGRYMENSLKEQEKLGIKLDKDQLIAGVQDAFADKSKLSDQEIEQTLQAFEARVKSSAQAKMEKDAADNEAKGKEYREKFAKEKQYEDGKQYTTLEKPVAGAPQVLEFFSFFCPHCYQFEEVLHISDNVKKKLPEGVKMTKYHVNFMGGDLGKDLTQAWAVAMALGVEDKVTVPLFEGVQKTQTIRSASDIRDVFINAGIKGEEYDAAWNSFVVKSLVAQQEKAAADVQLRGVPAMFVNGKYQLNPQGMDTSNMDVFVQQYADTVKYLSEKKHHHHHH",
    "Citrate Synthase Inactivation, µ / min - 1": 0.17
  }
]
